# assay explanation: Inhibition of Influenza A virus (A/California/04/2009(H1N1)) neuraminidase using 4-MU-NANA as substrate preincubated for 5 mins followed by substrate addition and measured after 30 to 60 mins by fluorescence assay
measurement type: pIC50
Numbers only, as −log10 of the molar value.

[[record]]
chem_smiles = "CCC(CC)O[C@@H]1C=C(C(=O)O)C[C@H](NCc2ccc(OCc3ccc(SC)cc3)cc2)[C@H]1NC(C)=O"
numeric_readout = 5.40

[[record]]
chem_smiles = "CCC(CC)O[C@@H]1C=C(C(=O)O)C[C@H](NCc2ccc(OCc3ccc(C#N)cc3)cc2)[C@H]1NC(C)=O"
numeric_readout = 6.39

[[record]]
chem_smiles = "CCC(CC)O[C@@H]1C=C(C(=O)O)C[C@H](NCc2ccc(NCc3ccccc3)cc2)[C@H]1NC(C)=O"
numeric_readout = 6.11


Recorded pIC50 (compound `CCC(CC)O[C@@H]1C=C(C(=O)O)C[C@H](NCc2ccc(SCc3ccc(F)cc3)cc2)[C@H]1NC(C)=O` ): 5.83
